tested on: Streptococcus pneumoniae; test: Antibacterial activity against erythromycin-resistant Streptococcus pneumoniae assessed as percent resistant isolates by CLSI breakpoint method; format: functional
property.label: CLSI resistance breakpoint (MIC)

| compound | observed.result |
| --- | --- |
| CC[C@H]1OC(=O)[C@H](C)C(=O)[C@H](C)[C@@H](O[C@@H]2O[C@H](C)C[C@H](N(C)C)[C@H]2O)[C@](C)(OC)C[C@@H](C)C(=O)[C@H](C)[C@H]2N(CCCCn3cnc(-c4cccnc4)c3)C(=O)O[C@]12C [TELITHROMYCIN] | >=4 ug ml-1 |
| C[C@H]1COc2c(N3CCN(C)CC3)c(F)cc3c(=O)c(C(=O)O)cn1c23.C[C@H]1COc2c(N3CCN(C)CC3)c(F)cc3c(=O)c(C(=O)O)cn1c23.O [LEVOFLOXACIN] | >=8 ug ml-1 |
| CO[C@@H]1[C@@H](O[C@@H]2O[C@H](C)[C@@H](O[C@H]3C[C@@](C)(O)[C@@H](OC(=O)CC(C)C)[C@H](C)O3)[C@H](N(C)C)[C@H]2O)[C@@H](CC=O)C[C@@H](C)[C@@H](O)/C=C/C=C/C[C@@H](C)OC(=O)C[C@H]1OC(C)=O [JOSAMYCIN] | >=4 ug ml-1 |
| CC[C@H]1OC(=O)[C@H](C)[C@@H](O[C@H]2C[C@@](C)(OC)[C@@H](O)[C@H](C)O2)[C@H](C)[C@@H](O[C@@H]2O[C@H](C)C[C@H](N(C)C)[C@H]2O)[C@](C)(O)C[C@@H](C)C(=O)[C@H](C)[C@@H](O)[C@]1(C)O [ERYTHROMYCIN] | >=1 ug ml-1 |
| O=C(N[C@H](CO)[C@H](O)c1ccc([N+](=O)[O-])cc1)C(Cl)Cl [CHLORAMPHENICOL] | >=8 ug ml-1 |

// sample CO/N=C(\C(=O)N[C@@H]1C(=O)N2C(C(=O)O)=C(COC(C)=O)CS[C@H]12)c1csc(N)n1 [CEFOTAXIME] , its CLSI resistance breakpoint (MIC) was >=4 ug ml-1

// sample CCC[C@@H]1C[C@@H](C(=O)N[C@@H]([C@H]2O[C@H](SC)[C@H](O)[C@@H](O)[C@H]2O)[C@H](C)Cl)N(C)C1 [CLINDAMYCIN] , its CLSI resistance breakpoint (MIC) was >=1 ug ml-1

// sample CN(C)[C@@H]1C(O)=C(C(N)=O)C(=O)[C@@]2(O)C(O)=C3C(=O)c4c(O)cccc4[C@@](C)(O)[C@H]3C[C@@H]12 [TETRACYCLINE] , its CLSI resistance breakpoint (MIC) was >=8 ug ml-1

---

test system: Streptococcus pneumoniae; experiment: Antibacterial activity against erythromycin-resistant Streptococcus pneumoniae assessed as percent sensitive isolates by CLSI breakpoint method; assay type: functional
property.label: Activity

| record.smiles | property.label | observed.result |
| --- | --- | --- |
| CC[C@H]1OC(=O)[C@H](C)C(=O)[C@H](C)[C@@H](O[C@@H]2O[C@H](C)C[C@H](N(C)C)[C@H]2O)[C@](C)(OC)C[C@@H](C)C(=O)[C@H](C)[C@H]2N(CCCCn3cnc(-c4cccnc4)c3)C(=O)O[C@]12C | Activity | <=1 ug ml-1 |
| CCC[C@@H]1C[C@@H](C(=O)N[C@@H]([C@H]2O[C@H](SC)[C@H](O)[C@@H](O)[C@H]2O)[C@H](C)Cl)N(C)C1 | Activity | <=0.25 ug ml-1 |
| C[C@H]1COc2c(N3CCN(C)CC3)c(F)cc3c(=O)c(C(=O)O)cn1c23.C[C@H]1COc2c(N3CCN(C)CC3)c(F)cc3c(=O)c(C(=O)O)cn1c23.O | Activity | <=2 ug ml-1 |
| CN(C)[C@@H]1C(O)=C(C(N)=O)C(=O)[C@@]2(O)C(O)=C3C(=O)c4c(O)cccc4[C@@](C)(O)[C@H]3C[C@@H]12 | Activity | <=2 ug ml-1 |
| CN[C@H](CC(C)C)C(=O)N[C@H]1C(=O)N[C@@H](CC(N)=O)C(=O)N[C@H]2C(=O)N[C@H]3C(=O)N[C@H](C(=O)N[C@H](C(=O)O)c4cc(O)cc(O)c4-c4cc3ccc4O)[C@H](O)c3ccc(c(Cl)c3)Oc3cc2cc(c3O[C@@H]2O[C@H](CO)[C@@H](O)[C@H](O)[C@H]2O[C@H]2C[C@](C)(N)[C@H](O)[C@H](C)O2)Oc2ccc(cc2Cl)[C@H]1O | Activity | <=1 ug ml-1 |
| CO/N=C(\C(=O)N[C@@H]1C(=O)N2C(C(=O)O)=C(COC(C)=O)CS[C@H]12)c1csc(N)n1 | Activity | <=1 ug ml-1 |

// sample "CC[C@H]1OC(=O)[C@H](C)[C@@H](O[C@H]2C[C@@](C)(OC)[C@@H](O)[C@H](C)O2)[C@H](C)[C@@H](O[C@@H]2O[C@H](C)C[C@H](N(C)C)[C@H]2O)[C@](C)(O)C[C@@H](C)C(=O)[C@H](C)[C@@H](O)[C@]1(C)O" , its Activity was <=0.25 ug ml-1

// sample "CO[C@@H]1[C@@H](O[C@@H]2O[C@H](C)[C@@H](O[C@H]3C[C@@](C)(O)[C@@H](OC(=O)CC(C)C)[C@H](C)O3)[C@H](N(C)C)[C@H]2O)[C@@H](CC=O)C[C@@H](C)[C@@H](O)/C=C/C=C/C[C@@H](C)OC(=O)C[C@H]1OC(C)=O" , its Activity was <=1 ug ml-1

---

system: Streptococcus pneumoniae; assay: Antibacterial activity against erythromycin-resistant Streptococcus pneumoniae assessed as percent resistant isolates by microdilution method; assay type: functional
property.label: Activity (%)
I only need the number, in %, no unit after it.

Summary: "CN(C)[C@@H]1C(O)=C(C(N)=O)C(=O)[C@@]2(O)C(O)=C3C(=O)c4c(O)cccc4[C@@](C)(O)[C@H]3C[C@@H]12" , Streptococcus pneumoniae, Activity = 77.6

Summary: "O=C(N[C@H](CO)[C@H](O)c1ccc([N+](=O)[O-])cc1)C(Cl)Cl" , Streptococcus pneumoniae, Activity = 34.4

Summary: "C[C@H]1COc2c(N3CCN(C)CC3)c(F)cc3c(=O)c(C(=O)O)cn1c23.C[C@H]1COc2c(N3CCN(C)CC3)c(F)cc3c(=O)c(C(=O)O)cn1c23.O" , Streptococcus pneumoniae, Activity = 4

Summary: "CC[C@H]1OC(=O)[C@H](C)[C@@H](O[C@H]2C[C@@](C)(OC)[C@@H](O)[C@H](C)O2)[C@H](C)[C@@H](O[C@@H]2O[C@H](C)C[C@H](N(C)C)[C@H]2O)[C@](C)(O)C[C@@H](C)CN(C)[C@H](C)[C@@H](O)[C@]1(C)O" , Streptococcus pneumoniae, Activity = 100

Summary: "CC[C@H]1OC(=O)[C@H](C)C(=O)[C@H](C)[C@@H](O[C@@H]2O[C@H](C)C[C@H](N(C)C)[C@H]2O)[C@](C)(OC)C[C@@H](C)C(=O)[C@H](C)[C@H]2N(CCCCn3cnc(-c4cccnc4)c3)C(=O)O[C@]12C" , Streptococcus pneumoniae, Activity = 0

Summary: "CCC[C@@H]1C[C@@H](C(=O)N[C@@H]([C@H]2O[C@H](SC)[C@H](O)[C@@H](O)[C@H]2O)[C@H](C)Cl)N(C)C1" , Streptococcus pneumoniae, Activity = 87.2

---

tested on: Streptococcus pneumoniae; experiment: Antibacterial activity against erythromycin-resistant Streptococcus pneumoniae assessed as percent resistant isolates by microdilution method; format: functional
Values of Activity strictly less than 0.8% map to Yes, and values of at least 0.8% map to No.

Data request: Does the reported Activity of the following molecule sit strictly below 0.8%? CN[C@H](CC(C)C)C(=O)N[C@H]1C(=O)N[C@@H](CC(N)=O)C(=O)N[C@H]2C(=O)N[C@H]3C(=O)N[C@H](C(=O)N[C@H](C(=O)O)c4cc(O)cc(O)c4-c4cc3ccc4O)[C@H](O)c3ccc(c(Cl)c3)Oc3cc2cc(c3O[C@@H]2O[C@H](CO)[C@@H](O)[C@H](O)[C@H]2O[C@H]2C[C@](C)(N)[C@H](O)[C@H](C)O2)Oc2ccc(cc2Cl)[C@H]1O [VANCOMYCIN]
Data returned: Yes

Data request: Does the reported Activity of the following molecule sit strictly below 0.8%? COc1c(N2C[C@@H]3CCCN[C@@H]3C2)c(F)cc2c(=O)c(C(=O)O)cn(C3CC3)c12 [MOXIFLOXACIN]
Data returned: No

Data request: Does the reported Activity of the following molecule sit strictly below 0.8%? CC[C@H]1OC(=O)[C@H](C)[C@@H](O[C@H]2C[C@@](C)(OC)[C@@H](O)[C@H](C)O2)[C@H](C)[C@@H](O[C@@H]2O[C@H](C)C[C@H](N(C)C)[C@H]2O)[C@](C)(O)C[C@@H](C)C(=O)[C@H](C)[C@@H](O)[C@]1(C)O [ERYTHROMYCIN]
Data returned: No

Data request: Does the reported Activity of the following molecule sit strictly below 0.8%? CO[C@@H]1[C@@H](O[C@@H]2O[C@H](C)[C@@H](O[C@H]3C[C@@](C)(O)[C@@H](OC(=O)CC(C)C)[C@H](C)O3)[C@H](N(C)C)[C@H]2O)[C@@H](CC=O)C[C@@H](C)[C@@H](O)/C=C/C=C/C[C@@H](C)OC(=O)C[C@H]1OC(C)=O [JOSAMYCIN]
Data returned: No
